target: HLA-B*40:02; test: IEDB peptide-MHC binding, purified MHC/competitive/radioactivity; filed as Kd, often an IC50 or EC50 that approximates it; bounds were set here for any values at or beyond the usual limits of such assays; conditions: source organism: Mammarenavirus guanaritoense
measured.attribute: Kd (µM)
Just the number please, in µM, no unit attached.

Ask: Could you share which Kd value was measured for PECSDSPLVL ?
Reply: 3.15

* * *

target: HLA-A*02:01; test: IEDB peptide-MHC binding, purified MHC/direct/fluorescence; filed as Kd, often an IC50 or EC50 that approximates it; bounds were set here for any values at or beyond the usual limits of such assays; conditions: source organism: Orthohantavirus andesense
pKd: −log10 of the molar value.
measured.attribute: pKd

Ask: Recall the recorded pKd for AYDHGNVIL with HLA-A*02:01 and state it.
Reply: ≤ 4.70
